test: gradient 5% acetonitrile 3 min, to 50% in 2 min, to 85% in 15 min, held 3 min, 100 µL/min; details: column: Zorbax Extend-C18 2.1 x 50 mm; eluents: water / acetonitrile, 0.1% formic acid
assay.endpoint: RP-LC retention time (s)

[A] CCOC(=O)c1c(C)oc2nc(C)nc(Nc3ccc(C)c(F)c3)c12
[B] CC(C)CCNC(=O)C1CC(=O)N(CCc2c[nH]c3ccc(Cl)cc23)C1 (centres undefined)
// select label with min value of measured RP-LC retention time from [ A , B ] State your choice using its label.
B

---

assay: gradient 5% acetonitrile 3 min, to 50% in 2 min, to 85% in 15 min, held 3 min, 100 µL/min; settings: column: Zorbax Extend-C18 2.1 x 50 mm; eluents: water / acetonitrile, 0.1% formic acid
assay.endpoint: RP-LC retention time (s)

>>> measured_result("Cc1ccc(Cn2nnc(C(=O)NCc3ccco3)c2-n2cccc2)cc1")
1010
>>> measured_result("CCCN1C(=O)COc2ccc(-c3noc(C4CC(=O)N(c5ccc(OC)cc5)C4)n3)cc21 (centres undefined)")
951
>>> measured_result("O=C(c1ccc(OC(F)(F)F)cc1)N1CCN(c2cc(-c3ccc(Cl)cc3)[nH]n2)CC1")
991
>>> measured_result("Cc1ccc(CNC(=O)C2(C)Cn3nc(C(=O)NCc4cccc(C)c4)cc3C(=O)N2C)cc1 (centres undefined)")
824
>>> measured_result("Cc1ccc(Oc2nccnc2N2CCCC(C(=O)NC(C)c3ccc(C)c(C)c3)C2)cc1 (centres undefined)")
1150

[I] CCc1cc(C2CCCN2Cc2cc(OC)c(O)c(OC)c2)on1 (centres undefined)
[II] O=C(Cn1cnc2c(sc3nc(-c4ccccc4)ccc32)c1=O)Nc1cccc(Cl)c1
Endpoint returns whichever of I and II has the numerically higher RP-LC retention time. Pick one and reply with its label.
II
(II: 1080 s, I: 575 s)

[1] Cc1ccnc(N2CCC(C(=O)N3CCC(C(N)=O)(N4CCCCC4)CC3)CC2)n1
[2] Cc1ccc(NC(=O)C2CCCN(c3ncnc4c3nc3n4CCCCC3)C2)cc1Cl (centres undefined)
Smaller RP-LC retention time value? Options are 1 and 2 Your answer should be the label attached to the chosen record.
1

---

assay: gradient 5% acetonitrile 3 min, to 50% in 2 min, to 85% in 15 min, held 3 min, 100 µL/min; conditions: column: Zorbax Extend-C18 2.1 x 50 mm; eluents: water / acetonitrile, 0.1% formic acid
assay.endpoint: RP-LC retention time (s)

>>> measured_result("CSc1ccccc1CN1CCC(CNC(=O)c2ccccc2Cl)CC1")
722

[1] COc1cc2c(cc1OC)C(C(=O)NCCCN1CCC(C)CC1)C1c3ccccc3CCN1C2=O (stereo not given)
[2] CCCCN(C)C(=O)Cn1c(=O)c(S(=O)(=O)c2ccccc2)cc2cc(C)ccc21
Between the entries labelled 1 and 2 , which has a larger RP-LC retention time value on record? Give the label under which the chosen entry appears.
2
(2: 953 s, 1: 624 s)

---

assay: gradient 5% acetonitrile 3 min, to 50% in 2 min, to 85% in 15 min, held 3 min, 100 µL/min; conditions: column: Zorbax Extend-C18 2.1 x 50 mm; eluents: water / acetonitrile, 0.1% formic acid
assay.endpoint: RP-LC retention time (s)

>>> measured_result("CCc1ccc(CNC(=O)c2nc3cccnc3n(CC)c2=O)cc1")
915
>>> measured_result("CCOC(=O)Cn1c(=O)c2c(nc3n2CCN3c2ccc(OC)cc2)n(C)c1=O")
826
>>> measured_result("Cn1c(=O)c2c(nc(Cc3ccc(N)cc3)n2C)n(C)c1=O")
621
>>> measured_result("Cc1ccc(-c2cn3c(CC(=O)Nc4ccc(F)c(Cl)c4)csc3n2)cc1C")
678
>>> measured_result("O=c1c2ccccc2c(-c2nc(-c3ccncc3)no2)cn1-c1ccc(Cl)cc1")
1140
>>> measured_result("COc1cccc(NC(=O)Nc2ccc3c(c2)CCN3S(=O)(=O)c2ccccc2)c1")
933
>>> measured_result("NC(=O)c1nccn1Cc1ccccc1")
645
>>> measured_result("NC(=O)C1(c2cccc(C(F)(F)F)c2)CC1")
764
>>> measured_result("O=C(CSc1ncc(CO)n1Cc1ccccc1)N1CCCc2ccccc21")
684
>>> measured_result("CCNc1nc(C)cc(N2CCN(C(=O)Nc3cc(C)ccc3C)CC2)n1")
668
>>> measured_result("O=C(c1cn2ccccc2n1)N1CCN(c2ccccc2Cl)CC1")
854
>>> measured_result("Cc1csc(-c2cn(CC(=O)NCc3cccc(C(F)(F)F)c3)cn2)n1")
716
>>> measured_result("Cc1ccc(-c2nnc(Cc3nc(-c4ccncc4)no3)o2)cc1C")
850
>>> measured_result("Cc1ccccc1CNC(=O)c1c(C)oc2c1C1=NCCN1C=N2")
621
>>> measured_result("O=C(Cc1csc2nc(-c3ccccc3)cn12)N1CCN(c2ccccc2)CC1")
820
>>> measured_result("CCOCCCNC(=O)CC1CCN(C(=O)c2[nH]c(C)cc2C)CC1")
661
>>> measured_result("CCC(C)n1c(=O)c2ccccc2n(Cc2nc(-c3ccccc3Cl)no2)c1=O (stereo unspecified)")
1170
>>> measured_result("CCCN1C(=O)C(CC(=O)NC(C)C)Sc2ncccc21 (stereo unspecified)")
680
>>> measured_result("COc1ccc(CC2c3cc(OC)c(OC)cc3CC[N+]2(C)C)cc1OC (stereo unspecified)")
693
>>> measured_result("O=S(=O)(c1ccc(Cl)c(-c2nnc(-c3ccccc3)o2)c1)N(CCO)CCO")
739
>>> measured_result("COc1ccc(C(=O)NC2CCN(c3cc(C)cc(C)c3)C2=O)cc1 (stereo unspecified)")
878

---

test: gradient 5% acetonitrile 3 min, to 50% in 2 min, to 85% in 15 min, held 3 min, 100 µL/min; conditions: column: Zorbax Extend-C18 2.1 x 50 mm; eluents: water / acetonitrile, 0.1% formic acid
assay.endpoint: RP-LC retention time (s)

>>> measured_result("Cn1nccc1C(=O)N1CCCC1c1nc(-c2ccc(F)cc2F)no1 (centres undefined)")
794
>>> measured_result("COCCO[C@H]1C(=O)N(C2CCN(S(=O)(=O)c3cccnc3)CC2)[C@H]1c1ccncc1")
583
>>> measured_result("O=C1NCCCCCN(C(=O)Cn2c(=O)oc3ccccc32)[C@@H]2C[C@@H](C(=O)N3CCc4ccccc4C3)C[C@H]12")
864
>>> measured_result("Cc1cc(C(F)(F)F)nn1CC(=O)N1CCC(c2noc(-c3ccccn3)n2)C1 (centres undefined)")
769
>>> measured_result("Cc1c(C2CCN(C(=O)c3ccc4c(c3)OCO4)CC2)noc1N")
663
>>> measured_result("Cc1noc(-c2ccnc(-n3cnc(C(=O)NC(C)C)c3)c2)n1")
712
>>> measured_result("O=C(CCC[C@@H]1[C@H]2CCCN3CCC[C@@H](CN1C(=O)c1ccccc1)[C@@H]23)Nc1ccc2c(c1)OCCO2")
647
>>> measured_result("Cc1nc2ccccc2c(=O)n1Cc1noc(-c2ccc3c(c2)OCO3)n1")
831
>>> measured_result("CC(C)n1c(CCNC(=O)c2ccc(F)cc2)nc2cccnc21")
656

---

test: gradient 5% acetonitrile 3 min, to 50% in 2 min, to 85% in 15 min, held 3 min, 100 µL/min; details: column: Zorbax Extend-C18 2.1 x 50 mm; eluents: water / acetonitrile, 0.1% formic acid
assay.endpoint: RP-LC retention time (s)

Known RP-LC retention time results, listed for orientation:
>>> measured_result("COc1ccc2c(c1)C1(CCN(S(=O)(=O)c3ccc(Br)cc3)C1)C(=O)N2C (stereo not given)")
986
>>> measured_result("COCc1nc(CCNC(=O)C2CCC2)no1")
609
>>> measured_result("CCOc1ccc(CNC(=O)C2(c3ccc(NC(C)=O)cc3)CCCCC2)cc1")
866
>>> measured_result("COCCOCC1CCN(C(=O)COc2cccc(OC)c2)CC1")
709
>>> measured_result("CCN1N=C(C(=O)N2CCOCC2)S(=O)(=O)c2cc(Cl)ccc21")
760

[P] Cc1noc([C@@H]2CC(F)(F)CN2C(=O)c2cc(C)[nH]n2)n1
[Q] O=C(NCCc1ccccc1)c1nc(Cn2c(=O)oc3ccc(Cl)cc32)no1
Identify the entry with the larger RP-LC retention time. Options: P and Q Answer format: the label of the selected item.
Q

---

experiment: gradient 5% acetonitrile 3 min, to 50% in 2 min, to 85% in 15 min, held 3 min, 100 µL/min; details: column: Zorbax Extend-C18 2.1 x 50 mm; eluents: water / acetonitrile, 0.1% formic acid
assay.endpoint: RP-LC retention time (s)

>>> measured_result("Cc1ccc(OCc2nc3c4ccccc4ncn3n2)cc1")
934
>>> measured_result("Cc1cc(-c2nnc(-c3ccccc3)o2)c(C)n1CC(=O)Nc1cc(F)cc(F)c1")
747
>>> measured_result("CCn1c(=O)c(N2CCCC(C(=O)N3CCN(c4cccc(OC)c4)CC3)C2)nc2ccccc21 (stereo not given)")
1100
>>> measured_result("N#CC1=CN(c2cccc(Br)c2)c2ccccc2S1(=O)=O")
939
>>> measured_result("CC(=O)N1CCc2sc(C(=O)N3CCN(c4ccccc4F)CC3)cc2C1")
784
>>> measured_result("CN1CCCc2cc(C(CNC(=O)C(=O)Nc3ccc4c(c3)OCO4)N3CCCCC3)ccc21 (stereo not given)")
718
>>> measured_result("COc1ccc(S(=O)(=O)N2CCc3nc(-c4ccc(F)cc4)ncc3C2)cc1OC")
983
>>> measured_result("CCCNC(=O)NCc1nc(-c2ccc(Cl)cc2)no1")
806

[I] Cc1ccc(CNC(=O)Cn2c(C)cc(-c3nnc(C4CCC4)o3)c2C)cc1
[II] Cc1cc(C)n(-c2ccnc(N3CCN(C(C)C)CC3)n2)n1
Compare the recorded RP-LC retention time of I and II ; state which is larger. Which one? Tell me its label.
I
